# assay summary: By-product toxicity test (metabolic byproducts in the human body)
# recorded conditions: toxicity of the metabolic by-products in human body
result type: Toxicity

Name the reported Toxicity value associated with the compound CCC(=O)OC(C)OC(=O)C1CCn2c(C(=O)c3ccccc3)ccc21 (centres unmarked)
relatively low

Endpoint output: Toxicity of CCC(OC(C)=O)OC(=O)C1CCn2c(C(=O)c3ccccc3)ccc21 (centres unmarked) . Value?
relatively low

Please report the recorded Toxicity for CCCCCCC(=O)OC(C)OC(=O)C1CCn2c(C(=O)c3ccccc3)ccc21 (centres unmarked) .
low

###

# assay summary: Stability study of levorotatory enantiomer of compounds in solvent (MCT)
# Format: physicochemical
# recorded conditions: dextrorotatory form, MCT solution, 25° C., day 0
Below is a list of entries, each paired with its recorded Isomer (%) value.
Give the quantity in %, number only.

Could you tell me which Isomer (%) is on file for CCC(OC(=O)OC(C)C)OC(=O)[C@H]1CCn2c(C(=O)c3ccccc3)ccc21 (stereo partly drawn) [N16(S)] ?
2.46
